// Ratio Ki lookup, one value per entry
- Species: Homo sapiens
- procedure.summary: Selectivity index, ratio of Ki for human D2LR to Ki or human D3R
Write no unit; give the number alone.

Answered examples (2):
molecular.string: CC(C)(C)c1cc(N2CCN(CCCCNC(=O)c3cn4ccccc4n3)CC2)cc(C(C)(C)C)c1
Ratio Ki: 11
--
molecular.string: CN(C)Cc1cccc2nc(C(=O)NCCCCN3CCN(c4cc(C(F)(F)F)nc(C(C)(C)C)n4)CC3)cn12
Ratio Ki: 11

Ask: I am curious: what Ratio Ki value has been reported for CC(C)(C)c1nc(N2CCN(CCCCNC(=O)c3cc4ccccc4[nH]3)CC2)cc(C(F)(F)F)n1 ?
Result: 83

Value source: ChEMBL document CHEMBL3351252
